FYI, the data here is from ChEMBL document CHEMBL3734650.

study system: 3-oxo-5-alpha-steroid 4-dehydrogenase 1 (Rattus norvegicus)
Sequence (P24008 whole entry): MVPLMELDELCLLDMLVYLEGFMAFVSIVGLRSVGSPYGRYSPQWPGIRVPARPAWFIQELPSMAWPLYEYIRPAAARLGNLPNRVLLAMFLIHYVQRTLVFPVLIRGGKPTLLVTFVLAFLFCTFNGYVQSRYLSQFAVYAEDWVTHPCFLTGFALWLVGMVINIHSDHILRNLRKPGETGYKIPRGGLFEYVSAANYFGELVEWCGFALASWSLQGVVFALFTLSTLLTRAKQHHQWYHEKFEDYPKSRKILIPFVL
protocol details: Inhibition of rat liver type 1 5alpha-reductase assessed as transformation of testosterone to dihydrotestosterone
condition summary: read-out: IC50
measure name: IC50 (nM)
Entry rule: numbers only, all in nM.

item_smiles=CCCCC(=O)O[C@H]1CC[C@@]2(C)C(=CC[C@@H]3[C@@H]2CC[C@]2(C)C(C(=O)Cn4cncn4)=CC[C@@H]32)C1 measure_name=IC50 numeric_readout=320
item_smiles=CCCCCC(=O)O[C@H]1CC[C@@]2(C)C(=CC[C@@H]3[C@@H]2CC[C@]2(C)C(C(=O)Cn4cncn4)=CC[C@@H]32)C1 measure_name=IC50 numeric_readout=100000

**Q:** Quote IC50 with test system 3-oxo-5-alpha-steroid 4-dehydrogenase 1 (Rattus norvegicus) for `CCC(=O)O[C@H]1CC[C@@]2(C)C(=CC[C@@H]3[C@@H]2CC[C@]2(C)C(C(=O)Cn4cncn4)=CC[C@@H]32)C1`
**A:** 88

* * *

study system: 3-oxo-5-alpha-steroid 4-dehydrogenase 2 (Homo sapiens)
Sequence (P31213 whole entry): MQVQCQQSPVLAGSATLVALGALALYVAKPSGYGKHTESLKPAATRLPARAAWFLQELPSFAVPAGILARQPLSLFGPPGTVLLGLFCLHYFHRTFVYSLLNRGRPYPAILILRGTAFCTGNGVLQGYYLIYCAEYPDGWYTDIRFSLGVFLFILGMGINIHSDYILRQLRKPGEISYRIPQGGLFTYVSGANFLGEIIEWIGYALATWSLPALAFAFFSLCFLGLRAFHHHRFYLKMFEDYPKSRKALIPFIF
protocol details: Inhibition of human prostate type 2 5alpha-reductase assessed as transformation of testosterone to dihydrotestosterone
Type: tissue-based, Prostate gland
condition summary: read-out: IC50
measure name: IC50 (µM)
Entry rule: numbers only, all in µM.

item_smiles=CC(=O)O[C@H]1CC[C@@]2(C)C(=CC[C@@H]3[C@@H]2CC[C@]2(C)C(C(=O)Cn4cncn4)=CC[C@@H]32)C1 study_system="3-oxo-5-alpha-steroid 4-dehydrogenase 2 (Homo sapiens)" value_units=µM numeric_readout=100

Now consider a different molecule.
**Q:** Tell me IC50 reported for `C[C@]12CC[C@H](OC(=O)C3CC3)CC1=CC[C@@H]1[C@@H]2CC[C@]2(C)C(C(=O)Cn3cncn3)=CC[C@@H]12`
**A:** 118
